- Tested on: human breast cancer cell line MD-MBA-231
- protocol-text: Bioactivity-guided percent apoptosis, Annexin V/Propidium iodide FACS, 48-h incubation
- Assay type: cell-based
- Design: key: % of cells (Annexin V/PI FACS)
- recorded-conditions: Table E5; Dose 100
quantity: Apoptosis
Numbers only.

In the examples that follow, each entry is paired with its recorded Apoptosis.
INSERT INTO assay_data (compound, result_number) VALUES
  ('C=C1[C@@H](c2ccc(O)c(OC)c2)O[C@@H](c2ccc(O)c(OC)c2)[C@@]12CCC1=C(C2)[C@@H](c2ccc(O)c(OC)c2)O[C@H]1c1ccc(O)c(OC)c1 [I-a]', 90.12),
  ('COc1cc([C@H]2O[C@@H](c3ccc(O)c(OC)c3)[C@@H](C)[C@H]2C)ccc1O [I-d]', 91.14),
  ('C=C1[C@@H](c2ccc(O)c(OC)c2)O[C@@H](c2ccc(O)c(OC)c2)[C@]12CCC1=C(C2)[C@@H](c2ccc(O)c(OC)c2)O[C@H]1c1ccc(O)c(OC)c1 [I-b]', 81.37);

Then there is this compound:
Look up Apoptosis: COc1cc([C@H]2O[C@@H](c3ccc(O)c(OC)c3)[C@H](C)[C@@H]2C)ccc1O [I-c] 92.9
